Test system: SD rats
Test: Respiratory depression in rats, arterial blood gas PCO2
Assay type: in vivo
Conditions: arterial blood, before administration
Text: 8-week-old male SD rats weighing 200 g-300 g were used as experimental animals to determine the effect of the compound of Example H05, the compound of Example H08, the compound of Example H10, the compound of Example H16, the compound of Example H17, the compound of Example H18, the compound of Example H21, and the compound of Example H24 on the partial pressure of blood in rats after intravenous administration. […]
READOUT: PCO2, 5 min before administration (mmHg)
Please give a number only; it is taken to be in mmHg.

Fc1ccc(C2(CCNCc3ccccc3OC(F)(F)F)CCOC3(CCCC3)C2)nc1 (stereo not drawn) :: 36.77
CNc1ccsc1C(=O)NCCC1(c2ccccn2)CCOC2(CCCC2)C1 (stereo not drawn) :: 36.77
Cc1cc(F)cnc1C1(CCNCc2ccccc2OC(F)(F)F)CCOC2(CCCC2)C1 (stereo not drawn) :: 35.72
Cc1ccc(CNCCC2(c3ccccn3)CCOC3(CCCC3)C2)c(C)c1 (stereo not drawn) :: 33.77
FC(F)Oc1ccccc1CNCCC1(c2ccccn2)CCOC2(CCCC2)C1 (stereo not drawn) :: 35.27
FC(F)(F)Oc1ccc(Cl)cc1CNCCC1(c2ccccn2)CCOC2(CCCC2)C1 (stereo not drawn) :: 34.77

// PCO2, 5 min before administration lookup, compound = Clc1ccsc1CNCCC1(c2ccccn2)CCOC2(CCCC2)C1 (stereo not drawn) , result: 35.65

// PCO2, 5 min before administration lookup, compound = FC(F)Oc1ccsc1CNCCC1(c2ccccn2)CCOC2(CCCC2)C1 (stereo not drawn) , result: 33.77

// PCO2, 5 min before administration lookup, compound = CN1CC[C@]23c4c5ccc(O)c4O[C@H]2[C@@H](O)C=C[C@H]3[C@H]1C5 [morphine, reference compound] , result: 36.41

src = patent US11072601B2
